B1: CSNK1G1 (parent)
chain: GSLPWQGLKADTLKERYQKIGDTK

# Variants of: B1
# Procedure Details: protein stability index of a GFP-peptide fusion (GPS, HEK-293T) (PSI 1-6); higher = more stable;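 further: lentivirally expressed fusions sorted by FACS into six bins by GFP to DsRed ratio, PSI derived from sequencing read proportions per bin multiplied by bin number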
# Conditions: c terminus: a fixed tail appended
Measured Attribute: protein stability index
Answer with the value's number alone.

GSLPWQGLKADMLKERYQKIGDTK [T12M] ... 3.94
GSLPWQGLKHDTLKERYQKIGDTK [A10H] ... 4.11
GSLPWQGLKADTLKERYQWIGDTK [K19W] ... 2.83

// protein stability index lookup, key: GSLPWQGLKADTLGERYQKIGDTK [K14G]
3.08

// protein stability index lookup, key: GSLPWQGLEADTLKERYQKIGDTK [K9E]
4.69

The measurements presented in this section are drawn from the supplement of paper PMC10567573.
